Cited source: paper PMC6858373

As shown below, each of these compounds has a reported Split Luciferase Assay %Lum Avg value.
# SYSTEM: FGF14:Nav1.6 C-tail complex (Homo sapiens, UniProt Q92915+Q9UQD0)
# Construct: polymerase chain reaction (PCR) amplification of the FGF14 open reading frame (nt 1–855); C-terminal fragment of Nav1.6 (amino acids 1763–1976) fused with CD4ΔC-tail (amino acids 1–395); expressed in transfected cells
# Sequence (Q92915 1-252 isoform Q92915-2): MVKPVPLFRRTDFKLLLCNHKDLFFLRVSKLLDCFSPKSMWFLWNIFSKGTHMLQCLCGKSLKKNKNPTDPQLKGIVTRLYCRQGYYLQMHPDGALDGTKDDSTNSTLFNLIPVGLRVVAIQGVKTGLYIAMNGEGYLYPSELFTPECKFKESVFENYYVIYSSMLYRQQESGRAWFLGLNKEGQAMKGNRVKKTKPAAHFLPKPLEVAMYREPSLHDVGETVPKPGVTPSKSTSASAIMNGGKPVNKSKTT
# Sequence (Q9UQD0 1763-1976 limits assumed): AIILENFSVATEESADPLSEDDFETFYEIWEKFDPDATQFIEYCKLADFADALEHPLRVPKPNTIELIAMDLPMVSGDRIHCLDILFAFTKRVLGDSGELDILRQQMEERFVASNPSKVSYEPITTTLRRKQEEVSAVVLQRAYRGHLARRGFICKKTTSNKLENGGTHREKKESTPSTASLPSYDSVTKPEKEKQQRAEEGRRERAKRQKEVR
# TEST METHOD NOTES: Split-luciferase complementation assay (LCA) in Clone V double stable HEK293 cells
# Assay type: cell-based
ATTRIBUTE MEASURED: Split Luciferase Assay %Lum Avg (%)

[[record]]
compound = "C[C@]12CC[C@@H]3c4ccc(OC(=O)N(CCCl)CCCl)cc4CC[C@H]3[C@@H]1CC[C@@H]2OP(=O)(O)O [Estramustine phosphate sodium]"
attribute_measured = "Split Luciferase Assay %Lum Avg"
measurement = 32.45

[[record]]
compound = "CCCS(=O)(=O)Nc1ccc(F)c(C(=O)c2c[nH]c3ncc(Cl)cc23)c1F [PLX4720, reference compound]"
attribute_measured = "Split Luciferase Assay %Lum Avg"
measurement = 36.71

[[record]]
compound = "O=P1(N(CCCl)CCCl)NCCCO1 (centres unmarked) [Cyclophosphamide]"
attribute_measured = "Split Luciferase Assay %Lum Avg"
measurement = 112.75

[[record]]
compound = "Oc1ncc(N(CCCl)CCCl)c(O)n1 [Uracil mustard]"
attribute_measured = "Split Luciferase Assay %Lum Avg"
measurement = 74.62

[[record]]
compound = "C=C1C[C@@H]2[C@H](CC[C@]3(C)C(=O)CC[C@@H]23)[C@@]2(C)C=CC(=O)C=C12 [Exemestane]"
attribute_measured = "Split Luciferase Assay %Lum Avg"
measurement = 102.89


###

# SYSTEM: FGF14:Nav1.6 C-tail complex (Homo sapiens, UniProt Q92915+Q9UQD0)
# Construct: polymerase chain reaction (PCR) amplification of the FGF14 open reading frame (nt 1–855); C-terminal fragment of Nav1.6 (amino acids 1763–1976) fused with CD4ΔC-tail (amino acids 1–395); expressed in transfected cells
# TEST METHOD NOTES: Split-luciferase complementation assay (LCA) in Clone V double stable HEK293 cells
# Assay type: cell-based
# CONDITIONS USED: CC_NCI screening, biological replicate Set 1; normalized to on-plate 0.3% DMSO controls (n=16 per plate)
ATTRIBUTE MEASURED: Split Luciferase Assay % Lum Set 1 (%)

[[record]]
molecule = "CC1(C)CNc2cc(NC(=O)c3cccnc3NCc3ccncc3)ccc21 [MOTESANIB]"
readout_unit = "%"
measurement = 78.05

[[record]]
molecule = "C#Cc1cccc(Nc2ncnc3cc(OCCOC)c(OCCOC)cc23)c1 [ERLOTINIB]"
readout_unit = "%"
measurement = 90.56

[[record]]
molecule = "N.N.O=C([O-])C1(C(=O)[O-])CCC1.[Pt+2] [Carboplatin]"
readout_unit = "%"
measurement = 110.12

[[record]]
molecule = "O=C(CCCCCCC(=O)Nc1ccccc1)NO [VORINOSTAT]"
readout_unit = "%"
measurement = 105.78


###

As shown below, each of these molecules has a reported Split Luciferase Assay %Lum Avg value.
# SYSTEM: FGF14:Nav1.6 C-tail complex (Homo sapiens, UniProt Q92915+Q9UQD0)
# Construct: polymerase chain reaction (PCR) amplification of the FGF14 open reading frame (nt 1–855); C-terminal fragment of Nav1.6 (amino acids 1763–1976) fused with CD4ΔC-tail (amino acids 1–395); expressed in transfected cells
# TEST METHOD NOTES: Split-luciferase complementation assay (LCA) in Clone V double stable HEK293 cells
# Assay type: cell-based
# CONDITIONS USED: CC_NCI screening; average of Set 1 and Set 2; normalized to 0.3% DMSO controls
Counter-ions that a name gives are not always drawn.
ATTRIBUTE MEASURED: Split Luciferase Assay %Lum Avg

[[record]]
molecule = "CC(/C=C/C(=O)NO)=C\\[C@@H](C)C(=O)c1ccc(N(C)C)cc1"
attribute_measured = "Split Luciferase Assay %Lum Avg"
measurement = "120.88%"

[[record]]
molecule = "Nc1nc(Cl)nc2c1ncn2[C@@H]1O[C@H](CO)[C@@H](O)[C@@H]1F"
attribute_measured = "Split Luciferase Assay %Lum Avg"
measurement = "138.54%"

[[record]]
molecule = "C=CC(=O)Nc1cc2c(Nc3ccc(F)c(Cl)c3)ncnc2cc1OCCCN1CCOCC1"
attribute_measured = "Split Luciferase Assay %Lum Avg"
measurement = "31.46%"

[[record]]
molecule = "CNC(=O)c1ccccc1Sc1ccc2c(/C=C/c3ccccn3)n[nH]c2c1 [AXITINIB]"
attribute_measured = "Split Luciferase Assay %Lum Avg"
measurement = "99.75%"

[[record]]
molecule = "Cn1nnc2c(C(N)=O)ncn2c1=O [Temozolomide]"
attribute_measured = "Split Luciferase Assay %Lum Avg"
measurement = "108.05%"

[[record]]
molecule = "CN(N=O)C(=O)N[C@@H](C=O)[C@@H](O)[C@H](O)[C@H](O)CO"
attribute_measured = "Split Luciferase Assay %Lum Avg"
measurement = "127.81%"

[[record]]
molecule = "C[C@@H](Oc1cc(-c2cnn(C3CCNCC3)c2)cnc1N)c1c(Cl)ccc(F)c1Cl"
attribute_measured = "Split Luciferase Assay %Lum Avg"
measurement = "53.96%"

[[record]]
molecule = "CCOC(=O)C1=C(N)Oc2ccc(Br)cc2C1C(C#N)C(=O)OCC (centres unmarked)"
attribute_measured = "Split Luciferase Assay %Lum Avg"
measurement = "89.28%"

[[record]]
molecule = "C#CCC(Cc1cnc2nc(N)nc(N)c2n1)c1ccc(C(=O)N[C@@H](CCC(=O)O)C(=O)O)cc1 (some centres unmarked) [Pralatrexate]"
attribute_measured = "Split Luciferase Assay %Lum Avg"
measurement = "111.92%"

[[record]]
molecule = "Cc1cc2c(F)c(Oc3ncnn4cc(OC[C@@H](C)O)c(C)c34)ccc2[nH]1"
attribute_measured = "Split Luciferase Assay %Lum Avg"
measurement = "34.70%"

[[record]]
molecule = "CN(C)C/C=C/C(=O)Nc1cc2c(Nc3ccc(F)c(Cl)c3)ncnc2cc1O[C@H]1CCOC1 [BIBW2992]"
attribute_measured = "Split Luciferase Assay %Lum Avg"
measurement = "82.83%"

[[record]]
molecule = "O=C1c2c(O)ccc(O)c2C(=O)c2c(NCCNCCO)ccc(NCCNCCO)c21"
attribute_measured = "Split Luciferase Assay %Lum Avg"
measurement = "10.68%"

[[record]]
molecule = "CN1CCN(CCOc2cc(OC3CCOCC3)c3c(Nc4c(Cl)ccc5c4OCO5)ncnc3c2)CC1 [AZD 0530]"
attribute_measured = "Split Luciferase Assay %Lum Avg"
measurement = "48.27%"

[[record]]
molecule = "CS(=O)(=O)c1ccc(C(=O)Nc2ccc(Cl)c(-c3ccccn3)c2)c(Cl)c1 [Vismodegib, reference compound]"
attribute_measured = "Split Luciferase Assay %Lum Avg"
measurement = "161.54%"

[[record]]
molecule = "NCCCNCCSP(=O)(O)O"
attribute_measured = "Split Luciferase Assay %Lum Avg"
measurement = "112.78%"

[[record]]
molecule = "O=C(CCBr)N1CCN(C(=O)CCBr)CC1"
attribute_measured = "Split Luciferase Assay %Lum Avg"
measurement = "123.53%"

[[record]]
molecule = "COc1cc2c(N3CCN(C(=O)Nc4ccc(OC(C)C)cc4)CC3)ncnc2cc1OCCCN1CCCCC1"
attribute_measured = "Split Luciferase Assay %Lum Avg"
measurement = "92.66%"

[[record]]
molecule = "COc1cc2ncnc(Nc3cccc(Br)c3)c2cc1OC"
attribute_measured = "Split Luciferase Assay %Lum Avg"
measurement = "132.77%"

[[record]]
molecule = "CC(C)C[C@H](NC(=O)[C@H](Cc1ccccc1)NC(=O)c1cnccn1)B(O)O [Bortezomib]"
attribute_measured = "Split Luciferase Assay %Lum Avg"
measurement = "103.51%"

[[record]]
molecule = "COc1cc2nccc(Oc3ccc(NC(=O)C4(C(=O)Nc5ccc(F)cc5)CC4)cc3)c2cc1OC [Cabozantinib]"
attribute_measured = "Split Luciferase Assay %Lum Avg"
measurement = "27.28%"

[[record]]
molecule = "Cc1cn(-c2cc(NC(=O)c3ccc(C)c(Nc4nccc(-c5cccnc5)n4)c3)cc(C(F)(F)F)c2)cn1 [Nilotinib]"
attribute_measured = "Split Luciferase Assay %Lum Avg"
measurement = "119.91%"

[[record]]
molecule = "CCCS(=O)(=O)Nc1ccc(F)c(C(=O)c2c[nH]c3ncc(-c4ccc(Cl)cc4)cc23)c1F [Vemurafenib]"
attribute_measured = "Split Luciferase Assay %Lum Avg"
measurement = "104.88%"

[[record]]
molecule = "C[C@]12O[C@H](C[C@]1(O)CO)n1c3ccccc3c3c4c(c5c6ccccc6n2c5c31)CNC4=O [Lestaurtinib, reference compound]"
attribute_measured = "Split Luciferase Assay %Lum Avg"
measurement = "45.45%"

[[record]]
molecule = "Cn1c(=O)n(-c2ccc(C(C)(C)C#N)cc2)c2c3cc(-c4cnc5ccccc5c4)ccc3ncc21"
attribute_measured = "Split Luciferase Assay %Lum Avg"
measurement = "96.28%"

[[record]]
molecule = "CC1(C)CCC(c2ccc(Cl)cc2)=C(CN2CCN(c3ccc(C(=O)NS(=O)(=O)c4ccc(N[C@H](CCN5CCOCC5)CSc5ccccc5)c(S(=O)(=O)C(F)(F)F)c4)cc3)CC2)C1"
attribute_measured = "Split Luciferase Assay %Lum Avg"
measurement = "82.80%"

[[record]]
molecule = "Cn1cnc2c(F)c(Nc3ccc(Br)cc3Cl)c(C(=O)NOCCO)cc21"
attribute_measured = "Split Luciferase Assay %Lum Avg"
measurement = "95.42%"

[[record]]
molecule = "CCNC(=O)c1noc(-c2cc(C(C)C)c(O)cc2O)c1-c1ccc(CN2CCOCC2)cc1"
attribute_measured = "Split Luciferase Assay %Lum Avg"
measurement = "45.76%"

[[record]]
molecule = "CO[C@H]1C[C@@H]2CC[C@@H](C)[C@@](O)(O2)C(=O)C(=O)N2CCCC[C@H]2C(=O)O[C@H]([C@H](C)C[C@@H]2CC[C@@H](OC(=O)C(C)(CO)CO)[C@H](OC)C2)CC(=O)[C@H](C)/C=C(\\C)[C@@H](O)[C@@H](OC)C(=O)[C@H](C)C[C@H](C)/C=C/C=C/C=C/1C [TEMSIROLIMUS]"
attribute_measured = "Split Luciferase Assay %Lum Avg"
measurement = "84.72%"

[[record]]
molecule = "COc1cc2c(Nc3ccc(Br)cc3F)ncnc2cc1OCC1CCN(C)CC1"
attribute_measured = "Split Luciferase Assay %Lum Avg"
measurement = "102.47%"

[[record]]
molecule = "Cn1cc(C2=C(c3ccc(Cl)cc3Cl)C(=O)NC2=O)c2ccccc21"
attribute_measured = "Split Luciferase Assay %Lum Avg"
measurement = "97.25%"

[[record]]
molecule = "CC[C@@]1(O)C(=O)OCc2c1cc1n(c2=O)Cc2cc3c(CN(C)C)c(O)ccc3nc2-1 [Topotecan hydrochloride]"
attribute_measured = "Split Luciferase Assay %Lum Avg"
measurement = "58.10%"

[[record]]
molecule = "Cc1nc(Nc2ncc(C(=O)Nc3c(C)cccc3Cl)s2)cc(N2CCN(CCO)CC2)n1 [DASATINIB]"
attribute_measured = "Split Luciferase Assay %Lum Avg"
measurement = "51.96%"

